tested on: RAW264.7 macrophages; assay: Cell viability of RAW264.7 macrophages (MTT method); format: cell-based, mouse; details: RAW264.7, MTT; Table 3; read-out: CC50 (μM) Cytotoxicity
quantity.kind: CC50

Ask: Using RAW264.7 macrophages as the test system, report measured CC50 of C=C1C2(C)CC3C4(C)C=CC(=O)OC(C)(C)C4CCC3(C)C13C(=O)OC(C)C3(O)C2=O (stereo not shown) .
Reply: > 100 µM

---

system: NO production in LPS-induced RAW 264.7 macrophages; assay: Inhibition of LPS induced NO production in RAW264.7 macrophages (Griess reagent); assay type: cell-based, mouse; conditions: Mus musculus, RAW264.7, 24 h, LPS 1 μg/ml, 24 h; Table 3; read-out: IC50 (μM) NO
quantity.kind: IC50 (µM)
Report the figure in µM without appending any unit label.

Ask: Give IC50 for the following compound: C=C1C2(C)CC3C4(C)C=CC(=O)OC(C)(C)C4CCC3(C)C13C(=O)OC(C)C3(O)C2=O (stereo not shown)
Reply: 37.7

The values you see were collected from paper PMC6072878.
